Biological target: T1, FOXL2 C134W (Homo sapiens, UniProt P58012 1-376, C134W)
T1 sequence: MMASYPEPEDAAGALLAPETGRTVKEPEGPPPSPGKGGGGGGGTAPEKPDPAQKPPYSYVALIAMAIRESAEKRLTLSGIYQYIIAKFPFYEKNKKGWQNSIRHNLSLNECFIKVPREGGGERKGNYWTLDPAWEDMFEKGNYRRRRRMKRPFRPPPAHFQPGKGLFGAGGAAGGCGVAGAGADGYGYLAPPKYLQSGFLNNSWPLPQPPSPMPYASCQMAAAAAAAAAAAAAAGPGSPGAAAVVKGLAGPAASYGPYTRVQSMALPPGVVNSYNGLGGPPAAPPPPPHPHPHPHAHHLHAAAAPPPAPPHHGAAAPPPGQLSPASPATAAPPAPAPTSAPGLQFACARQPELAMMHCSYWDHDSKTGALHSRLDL
Assay: pulldown; 37 C; 10 mM HEPES, 140 mM KCl, 25 mM NaCl, 1 mM MgCl2, 0.1 mM CaCl2; equimolar mix, tRNA
Conditions: tags: His-SUMO, cleaved

- Binder: "RF004 (ssRNA) RNA: GGGAGAGUAUCCGUUGAGGCUGAAUCUGCGACUGGCUGGAGGUGGACGGAUGGCUGGAGGCGAAAUUGGCUUAAGAUCGGAAGAGCGUCGUGUAGG"
  binding result: "binds"
- Binder: "RF000 (ssRNA) RNA: GGGAGAGUAUCCGUUGAGGCUGAGAGGUAUUAAGAGGCGGAGGCGGAAGGAUGGCGGAGGACCGACAGAGAAGAGAUCGGAAGAGCGUCGUGUAGG"
  binding result: "binds"
